- Species on record: Rattus norvegicus
- experiment: Inhibition of U-46,619-induced contraction of Rat thoracic aorta in the presence of indomethacin, KB
- Format: functional
measure: Kb (µM)
Report only the number, with the unit µM understood.

| compound | Kb (µM) |
| --- | --- |
| COc1cc(CC2c3cc(O)c(O)cc3CCN2Cc2ccc(N)cc2)cc(OC)c1OC (stereo not given) | 162 |
| COc1cc(CC2c3cc(O)c(O)cc3CCN2Cc2ccc([N+](=O)[O-])cc2)cc(OC)c1OC (stereo not given) | 89.1 |
| COc1cc(CC2c3cc(O)c(O)cc3CCN2Cc2ccc(C)cc2)cc(OC)c1OC (stereo not given) | 55 |
| COc1cc(CC2c3cc(O)c(O)cc3CCN2Cc2ccccc2)cc(OC)c1OC (stereo not given) | 138 |

Turning to the following compound.
Any idea what its Kb is? The compound is COc1ccc(CN2CCc3cc(O)c(O)cc3C2Cc2cc(OC)c(OC)c(OC)c2)cc1 (stereo not given)
69.2
